system: MES-induced seizures; test: Test 1: Maximal Electroshock Test (MES), mice i.p.; type: in vivo; conditions: 300 mg/kg (+), 0.5 h
readout: MES (number of animal protected/number of animal tested)

In [3]: df
Out[3]:
                                givensmiles  valuemeasured
0  CCOC(=O)CC1(CNC(=O)OCCSSCCO[N+](=O)[O-])CCCCC1            1/1
1  CS(=O)(=O)NC(=O)OCCSSCCOC(=O)Nc1nnc(-c2cccc(Cl)c2Cl)c(N)n1          (1/1)
2  Cl.Nc1nc(NC(=O)OCCSSCCNC(=O)c2cccnc2)nnc1-c1cccc(Cl)c1Cl          (1/1)
3  Nc1nc(NC(=O)OCCSSCCOC(=O)NCC2(CC(=O)O)CCCCC2)nnc1-c1cccc(Cl)c1Cl            1/1
